Assay: Aqueous solubility of compound at pH 7.4
Assay type: physicochemical
Settings: aqueous medium, read-out: solubility
# maps each entry to its solubility
assay_endpoint: solubility (µM)

1. CN1[C@@H]2CC[C@H]1c1c(sc(NC(=O)Nc3ccc(Cl)cc3)c1C(N)=O)C2.Cl: 86
2. CN1[C@@H]2CC[C@H]1c1c(sc(NC(=O)Nc3ccc(Cl)cc3)c1C(N)=O)C2 (single isomer, unassigned): 76
3. NC(=O)c1c(NC(=O)Nc2ccc(Cl)cc2)sc2c1CCN(CCCNC(=O)CCc1c[nH]c3ccccc13)C2: 86

----------
Test: Drug metabolism assessed as air oxidation
Format: physicochemical
assay_endpoint: Drug metabolism

1) NC(=O)c1c(NC(=O)Nc2ccc(Cl)cc2)sc2c1CCN(CCCNC(=O)CCc1c[nH]c3ccccc13)C2: Metabolite_Detected
2) CCN1CCc2c(sc(NC(=O)Nc3ccc(Cl)cc3)c2C(N)=O)C1.Cl: Metabolite_Detected
3) CN1[C@@H]2CC[C@H]1c1c(sc(NC(=O)Nc3ccc(Cl)cc3)c1C(N)=O)C2.Cl: Metabolite_Notdetected
4) CC1(C)Cc2c(sc(NC(=O)Nc3ccc(Cl)cc3)c2C(N)=O)C(C)(C)N1.Cl: Metabolite_Notdetected

----------
Biological target: Cytochrome P450 2D6 (Homo sapiens, UniProt P10635)
Sequence (P10635 whole entry): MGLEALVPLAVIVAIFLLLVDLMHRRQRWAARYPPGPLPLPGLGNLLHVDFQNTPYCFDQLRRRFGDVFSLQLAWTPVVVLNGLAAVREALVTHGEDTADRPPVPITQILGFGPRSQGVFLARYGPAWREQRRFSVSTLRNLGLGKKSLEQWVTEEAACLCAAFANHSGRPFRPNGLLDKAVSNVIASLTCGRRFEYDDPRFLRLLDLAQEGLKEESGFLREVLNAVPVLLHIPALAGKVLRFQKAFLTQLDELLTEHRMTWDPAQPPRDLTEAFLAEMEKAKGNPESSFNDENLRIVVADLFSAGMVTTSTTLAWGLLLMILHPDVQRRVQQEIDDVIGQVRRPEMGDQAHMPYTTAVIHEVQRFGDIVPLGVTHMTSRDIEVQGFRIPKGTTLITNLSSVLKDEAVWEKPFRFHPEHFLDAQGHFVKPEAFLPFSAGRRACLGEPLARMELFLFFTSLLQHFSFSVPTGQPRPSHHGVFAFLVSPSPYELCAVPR
Test: Inhibition of CYP2D6 (unknown origin)
Assay type: ADME
assay_endpoint: IC50

1. CN1[C@@H]2CC[C@H]1c1c(sc(NC(=O)Nc3ccc(Cl)cc3)c1C(N)=O)C2.Cl: > 100 µM

----------
Target: Cytochrome P450 3A4 (Homo sapiens)
Sequence (P08684 whole entry): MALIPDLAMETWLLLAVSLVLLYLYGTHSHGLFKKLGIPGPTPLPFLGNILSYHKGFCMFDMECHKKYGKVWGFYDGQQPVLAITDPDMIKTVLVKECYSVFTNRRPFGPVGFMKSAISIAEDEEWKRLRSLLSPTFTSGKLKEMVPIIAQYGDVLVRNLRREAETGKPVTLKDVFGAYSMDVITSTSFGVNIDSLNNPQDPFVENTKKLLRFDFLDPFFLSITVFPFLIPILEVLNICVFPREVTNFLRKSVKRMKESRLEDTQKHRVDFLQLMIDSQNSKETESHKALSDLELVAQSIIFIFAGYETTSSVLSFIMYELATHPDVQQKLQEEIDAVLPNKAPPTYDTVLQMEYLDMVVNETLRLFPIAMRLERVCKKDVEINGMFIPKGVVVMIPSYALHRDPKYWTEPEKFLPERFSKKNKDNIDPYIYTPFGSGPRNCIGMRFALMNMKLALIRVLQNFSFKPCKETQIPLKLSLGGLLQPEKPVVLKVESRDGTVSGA
Assay: Inhibition of CYP3A4 (unknown origin)
Type: ADME
assay_endpoint: IC50 (µM)

1) CN1[C@@H]2CC[C@H]1c1c(sc(NC(=O)Nc3ccc(Cl)cc3)c1C(N)=O)C2.Cl: 46

----------
Assay: Protein binding in human plasma
Format: ADME, cell-free
Conditions: read-out: PPB
assay_endpoint: fraction unbound

1) NC(=O)c1c(NC(=O)Nc2ccc(Cl)cc2)sc2c1CCN(CCCNC(=O)CCc1c[nH]c3ccccc13)C2: 0.001

----------
Molecular target: Voltage-gated inwardly rectifying potassium channel KCNH2 (Homo sapiens)
Sequence (Q12809 whole entry): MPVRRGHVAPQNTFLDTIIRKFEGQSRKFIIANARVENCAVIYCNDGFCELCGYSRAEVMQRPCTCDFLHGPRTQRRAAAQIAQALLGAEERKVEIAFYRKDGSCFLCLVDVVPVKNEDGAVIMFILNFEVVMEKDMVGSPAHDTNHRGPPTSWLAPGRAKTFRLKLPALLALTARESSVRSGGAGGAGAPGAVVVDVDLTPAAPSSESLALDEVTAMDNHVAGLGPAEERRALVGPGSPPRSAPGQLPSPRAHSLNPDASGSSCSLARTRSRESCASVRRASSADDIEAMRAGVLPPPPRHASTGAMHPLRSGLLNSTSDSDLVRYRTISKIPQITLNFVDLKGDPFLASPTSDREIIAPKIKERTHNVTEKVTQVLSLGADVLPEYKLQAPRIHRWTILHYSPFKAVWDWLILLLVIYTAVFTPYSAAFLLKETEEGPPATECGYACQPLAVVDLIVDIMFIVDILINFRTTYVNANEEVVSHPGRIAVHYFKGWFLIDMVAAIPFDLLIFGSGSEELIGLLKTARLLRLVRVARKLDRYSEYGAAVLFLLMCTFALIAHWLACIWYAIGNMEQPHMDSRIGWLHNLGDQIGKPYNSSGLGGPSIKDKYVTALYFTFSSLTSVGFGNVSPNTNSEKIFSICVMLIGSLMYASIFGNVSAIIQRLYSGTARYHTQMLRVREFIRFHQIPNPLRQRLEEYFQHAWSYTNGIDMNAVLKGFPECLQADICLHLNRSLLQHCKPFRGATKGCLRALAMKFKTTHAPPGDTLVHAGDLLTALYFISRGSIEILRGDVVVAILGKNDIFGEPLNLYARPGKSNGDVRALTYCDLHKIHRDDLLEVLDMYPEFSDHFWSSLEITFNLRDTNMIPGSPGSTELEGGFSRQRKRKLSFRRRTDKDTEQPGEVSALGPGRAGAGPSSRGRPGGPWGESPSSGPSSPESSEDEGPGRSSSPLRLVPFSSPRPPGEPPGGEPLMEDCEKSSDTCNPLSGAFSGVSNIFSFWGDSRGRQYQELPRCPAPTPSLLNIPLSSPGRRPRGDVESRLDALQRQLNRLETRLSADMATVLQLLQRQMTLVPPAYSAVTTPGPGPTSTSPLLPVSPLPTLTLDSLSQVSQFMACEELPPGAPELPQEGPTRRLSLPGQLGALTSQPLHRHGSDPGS
# maps each entry to its IC50
assay_endpoint: IC50 (µM)

1) NC(=O)c1c(NC(=O)Nc2ccc(Cl)cc2)sc2c1CC[N+]1(CCCC1)C2: 3.51
2) NC(=O)c1c(NC(=O)Nc2ccc(Cl)cc2)sc2c1CCN(CCCNC(=O)CCc1c[nH]c3ccccc13)C2: 20.1
3) CCN1CCc2c(sc(NC(=O)Nc3ccc(Cl)cc3)c2C(N)=O)C1.Cl: 3.26
4) NC(=O)c1c(NC(=O)Nc2ccc(Cl)cc2)sc2c1CC[N+]1(CCOCC1)C2: 12.4
5) CC[N+]1(C)CCc2c(sc(NC(=O)Nc3ccc(Cl)cc3)c2C(N)=O)C1 (stereo unspecified): 3.38

----------
Assay: Permeability across MDCK cells expressing MDR1
Format: ADME, cell-based, Canis lupus familiaris
Settings: dog, read-out: permeability
assay_endpoint: Papp (×10⁻⁶ cm/s)

1. CN1[C@@H]2CC[C@H]1c1c(sc(NC(=O)Nc3ccc(Cl)cc3)c1C(N)=O)C2.Cl: 5.2

----------
Test: Protein binding in rat plasma
Format: ADME, cell-free
Settings: read-out: PPB
assay_endpoint: fraction unbound

1) NC(=O)c1c(NC(=O)Nc2ccc(Cl)cc2)sc2c1CCN(CCCNC(=O)CCc1c[nH]c3ccccc13)C2: 0.001
